Ratio IC50 values by entry
Target: MMP-2/MMP-9 (Homo sapiens) (UniProt P08253+P14780)
Sequence (P08253 whole entry): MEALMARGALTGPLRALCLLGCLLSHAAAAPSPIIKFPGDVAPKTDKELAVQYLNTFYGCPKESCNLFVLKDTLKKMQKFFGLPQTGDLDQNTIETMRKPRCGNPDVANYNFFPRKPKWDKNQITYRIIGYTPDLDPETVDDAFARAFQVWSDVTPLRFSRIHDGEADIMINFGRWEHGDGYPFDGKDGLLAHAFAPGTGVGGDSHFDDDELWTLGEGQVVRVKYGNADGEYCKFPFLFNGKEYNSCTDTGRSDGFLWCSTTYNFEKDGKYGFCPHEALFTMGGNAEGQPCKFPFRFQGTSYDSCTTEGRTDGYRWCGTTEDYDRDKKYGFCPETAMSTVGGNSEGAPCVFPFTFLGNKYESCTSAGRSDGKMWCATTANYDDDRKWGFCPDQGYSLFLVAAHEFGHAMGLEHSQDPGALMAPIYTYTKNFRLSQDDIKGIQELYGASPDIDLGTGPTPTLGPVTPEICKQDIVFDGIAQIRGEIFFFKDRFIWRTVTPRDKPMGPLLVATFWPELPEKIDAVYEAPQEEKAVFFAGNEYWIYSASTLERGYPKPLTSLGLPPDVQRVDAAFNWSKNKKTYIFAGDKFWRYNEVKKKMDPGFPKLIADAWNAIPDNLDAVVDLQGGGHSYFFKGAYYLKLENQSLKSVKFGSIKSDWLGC
Assay: Selectivity ratio of IC50 for recombinant human MMP9 (Phe107 to Pro449 residues) expressed in Escherichia coli to IC50 for recombinant human MMP2 (Tyr110 to Asp452 residues)
Field format: numeric only.

Worked cases, answers included:
LINE NOTATION | RESULT
CC(C)NC(=O)CC[C@H](NS(=O)(=O)c1ccc([N+](=O)[O-])cc1)C(=O)O | 2.82
CCCCCNC(=O)CC[C@H](NS(=O)(=O)c1ccc([N+](=O)[O-])cc1)C(=O)O | 1.42
CNC(=O)CC[C@H](NS(=O)(=O)c1ccc([N+](=O)[O-])cc1)C(=O)O | 2.63

Kindly review the next molecule as well.
Ratio IC50 reading for NC(=O)CC[C@H](NS(=O)(=O)c1ccc([N+](=O)[O-])cc1)C(=O)O : 4.24

----------
pIC50 values by entry
Tested on: K562
Assay: Cytotoxicity against human K562 cells assessed as reduction in cell viability after 48 hrs by MTT assay
Format: functional, cell-based
Details: K562, 48 h
Please treat pIC50 as minus the base-10 logarithm of the molar concentration.

Worked cases, answers included:
LINE NOTATION | RESULT
CCCCNC(=O)CC[C@H](NS(=O)(=O)c1ccc([N+](=O)[O-])cc1)C(=O)O | 4.71
O=C(CC[C@H](NS(=O)(=O)c1ccc([N+](=O)[O-])cc1)C(=O)O)NCc1ccccc1 | 4.63
CCCCCNC(=O)CC[C@H](NS(=O)(=O)c1ccc([N+](=O)[O-])cc1)C(=O)O | 4.75
CC(C)NC(=O)CC[C@H](NS(=O)(=O)c1ccc([N+](=O)[O-])cc1)C(=O)O | 4.70

Kindly review the next molecule as well.
The observed pIC50 for CC(C)CNC(=O)CC[C@H](NS(=O)(=O)c1ccc([N+](=O)[O-])cc1)C(=O)O when tested with K562 stands at 4.37

----------
Molecular target: Matrix metalloproteinase-9 (Homo sapiens, UniProt P14780)
Sequence (P14780 whole entry): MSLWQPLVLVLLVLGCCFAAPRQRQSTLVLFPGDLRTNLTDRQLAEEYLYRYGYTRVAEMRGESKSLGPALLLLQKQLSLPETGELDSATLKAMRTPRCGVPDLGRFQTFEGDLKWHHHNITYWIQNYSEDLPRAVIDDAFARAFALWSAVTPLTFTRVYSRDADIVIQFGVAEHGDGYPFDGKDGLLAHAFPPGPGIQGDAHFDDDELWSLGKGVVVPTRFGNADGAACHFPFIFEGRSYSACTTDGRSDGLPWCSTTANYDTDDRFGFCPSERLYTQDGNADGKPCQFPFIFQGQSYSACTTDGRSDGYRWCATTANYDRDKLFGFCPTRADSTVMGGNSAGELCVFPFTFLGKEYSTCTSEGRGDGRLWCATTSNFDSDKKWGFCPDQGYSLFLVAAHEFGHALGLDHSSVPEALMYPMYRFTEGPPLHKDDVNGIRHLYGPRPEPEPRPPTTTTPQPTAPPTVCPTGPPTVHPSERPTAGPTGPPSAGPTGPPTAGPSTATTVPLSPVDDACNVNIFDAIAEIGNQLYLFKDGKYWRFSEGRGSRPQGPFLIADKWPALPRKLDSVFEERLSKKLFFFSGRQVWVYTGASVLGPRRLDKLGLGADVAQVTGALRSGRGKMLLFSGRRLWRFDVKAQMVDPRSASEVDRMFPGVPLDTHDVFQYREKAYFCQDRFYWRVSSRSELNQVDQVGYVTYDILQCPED
Assay: Inhibition of recombinant human MMP9 (Phe107 to Pro449 residues) expressed in Escherichia coli using Ac-Pro-Leu-Gly-S-Leu-Leu-Gly-OEt as substrate after 1 hr measured at 1 min time interval for 30 mins by microplate photometric method
pIC50 values by entry
Please treat pIC50 as minus the base-10 logarithm of the molar concentration.

Worked cases, answers included:
LINE NOTATION | pIC50
CC(C)NC(=O)CC[C@H](NS(=O)(=O)c1ccc([N+](=O)[O-])cc1)C(=O)O | 5.22
CNC(=O)CC[C@H](NS(=O)(=O)c1ccc([N+](=O)[O-])cc1)C(=O)O | 5.12
CCNC(=O)CC[C@H](NS(=O)(=O)c1ccc([N+](=O)[O-])cc1)C(=O)O | 5.32

pIC50 reading for CC(C)CNC(=O)CC[C@H](NS(=O)(=O)c1ccc([N+](=O)[O-])cc1)C(=O)O : 5.29

pIC50 reading for CCCCNC(=O)CC[C@H](NS(=O)(=O)c1ccc([N+](=O)[O-])cc1)C(=O)O : 5.20

----------
Target: UniProt P08253
Assay: Inhibition of recombinant human MMP2 (Tyr110 to Asp452 residues) using Ac-Pro-Leu-Gly-S-Leu-Leu-Gly-OEt as substrate after 1 hr measured at 1 min time interval for 30 mins by microplate photometric method
PROPERTY NAME: pIC50
Please treat pIC50 as minus the base-10 logarithm of the molar concentration.

Worked cases, answers included:
LINE NOTATION | RESULT
CNC(=O)CC[C@H](NS(=O)(=O)c1ccc([N+](=O)[O-])cc1)C(=O)O | 5.55
CCCCCNC(=O)CC[C@H](NS(=O)(=O)c1ccc([N+](=O)[O-])cc1)C(=O)O | 5.32
CC(C)NC(=O)CC[C@H](NS(=O)(=O)c1ccc([N+](=O)[O-])cc1)C(=O)O | 5.67
CCCCNC(=O)CC[C@H](NS(=O)(=O)c1ccc([N+](=O)[O-])cc1)C(=O)O | 5.39
CC(C)CNC(=O)CC[C@H](NS(=O)(=O)c1ccc([N+](=O)[O-])cc1)C(=O)O | 5.07

The observed pIC50 for O=C(CC[C@H](NS(=O)(=O)c1ccc([N+](=O)[O-])cc1)C(=O)O)NCc1ccccc1 when tested with UniProt P08253 stands at 6.68

The observed pIC50 for NC(=O)CC[C@H](NS(=O)(=O)c1ccc([N+](=O)[O-])cc1)C(=O)O when tested with UniProt P08253 stands at 5.78

The observed pIC50 for CCNC(=O)CC[C@H](NS(=O)(=O)c1ccc([N+](=O)[O-])cc1)C(=O)O when tested with UniProt P08253 stands at 5.27

----------
Tested on: K562
Assay: Cytotoxicity against human K562 cells assessed as reduction in cell viability after 48 hrs by MTT assay
Assay type: functional, cell-based
Settings: K562, 48 h
IC50 values by entry

Worked cases, answers included:
LINE NOTATION | IC50
NC(=O)CC[C@H](NS(=O)(=O)c1ccc([N+](=O)[O-])cc1)C(=O)O | > 500 µM
CCNC(=O)CC[C@H](NS(=O)(=O)c1ccc([N+](=O)[O-])cc1)C(=O)O | > 500 µM

IC50 reading for CNC(=O)CC[C@H](NS(=O)(=O)c1ccc([N+](=O)[O-])cc1)C(=O)O : > 500 µM

----------
IC50 values by entry
Molecular target: UniProt:P14780
Assay: Inhibition of recombinant human MMP9 (Phe107 to Pro449 residues) expressed in Escherichia coli using Ac-Pro-Leu-Gly-S-Leu-Leu-Gly-OEt as substrate after 1 hr measured at 1 min time interval for 30 mins by microplate photometric method
The response must be a number in µM with no trailing unit.

Worked cases, answers included:
LINE NOTATION | TESTED TARGET | IC50 / µM
O=C(CC[C@H](NS(=O)(=O)c1ccc([N+](=O)[O-])cc1)C(=O)O)NCc1ccccc1 | UniProt:P14780 | 6.37
CCCCCNC(=O)CC[C@H](NS(=O)(=O)c1ccc([N+](=O)[O-])cc1)C(=O)O | UniProt:P14780 | 6.8

Kindly review the next molecule as well.
IC50 reading for NC(=O)CC[C@H](NS(=O)(=O)c1ccc([N+](=O)[O-])cc1)C(=O)O : 7
